Settings: solvent Cétiol LC (Cocoyl cyprylate caprate)
ENDPOINT NAME: solubility in Cétiol LC
# output: numeric value plus its unit

// solved cases for solubility in Cétiol LC follow
For this compound ( CCCCC=CC(C)c1cccc2nc(-c3ccc(-c4nc5cccc(C(C)C=CCCCC)c5o4)cc3)oc12 (stereo not shown) [Example 9] ), measured solubility in Cétiol LC is 1.02%

For this compound ( CC(Cc1cc(C(C)(C)C)cc2nc(-c3ccc(-c4nc5cc(C(C)(C)C)cc(CC(C)C[Si](C)(O[Si](C)(C)C)O[Si](C)(C)C)c5o4)cc3)oc12)C[Si](C)(O[Si](C)(C)C)O[Si](C)(C)C (stereo not shown) [Example 5] ), measured solubility in Cétiol LC is 12.3%

More entries:
For this compound ( C=CCc1cc(C(C)(C)C)cc2nc(-c3ccc(-c4nc5cc(C(C)(C)C)cc(CC=C)c5o4)cc3)oc12 [Example 1] ), measured solubility in Cétiol LC is 1.1%

For this compound ( CC(C)(C)c1cc(CCC[Si](C)(C)O[Si](C)(C)C)c2oc(-c3ccc(-c4nc5cc(C(C)(C)C)cc(CCC[Si](C)(C)O[Si](C)(C)C)c5o4)cc3)nc2c1 [Example 2] ), measured solubility in Cétiol LC is 18%
